Target: Muscarinic acetylcholine receptor M1 (Homo sapiens)
Sequence (P11229 whole entry): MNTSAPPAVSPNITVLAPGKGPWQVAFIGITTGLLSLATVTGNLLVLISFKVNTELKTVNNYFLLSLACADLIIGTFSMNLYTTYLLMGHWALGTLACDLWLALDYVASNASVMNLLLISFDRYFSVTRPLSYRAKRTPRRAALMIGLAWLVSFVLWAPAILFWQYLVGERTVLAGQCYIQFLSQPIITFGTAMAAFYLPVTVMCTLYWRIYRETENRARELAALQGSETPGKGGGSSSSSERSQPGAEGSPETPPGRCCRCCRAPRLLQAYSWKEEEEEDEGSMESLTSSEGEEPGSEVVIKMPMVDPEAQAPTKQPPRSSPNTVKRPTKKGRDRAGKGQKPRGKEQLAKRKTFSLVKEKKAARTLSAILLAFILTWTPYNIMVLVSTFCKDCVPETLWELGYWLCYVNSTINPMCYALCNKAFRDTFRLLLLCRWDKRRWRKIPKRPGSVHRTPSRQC
Assay: The binding affinity was measured as inhibition of binding of [3H]- quinuclidinyl benzilate to Muscarinic acetylcholine receptor M1 in membranes of CHO cells
Type: cell membranes
# note: exactly 7 µM is not below, so it is label 0; use label 1 for Ki strictly under it

The following compounds have reported results that may help.
> print(dat)
                                   compound  classification
1  CN1C2CCCC1C(OC(=O)c1ccccc1)C2 (stereo unspecified)         label 0
2  CN1C2CCCC1C(OC(=O)OCC(Cl)(Cl)Cl)C2 (stereo unspecified)         label 0
3  O=C(OC1CC2CCCC1N2)c1ccccc1 (stereo unspecified)         label 1
4  O=C(OC1CC2CCCC1N2)c1ccc([N+](=O)[O-])cc1 (stereo unspecified)         label 1

Pending compound:
(Q) Here's an entry: O=C(OC1CC2CCCC1N2)C1CCCCC1 (stereo unspecified) . Is its Ki below 7 µM?
(A) label 0

###

Target: Muscarinic acetylcholine receptor M3 (Homo sapiens, UniProt P20309)
Sequence (P20309 whole entry): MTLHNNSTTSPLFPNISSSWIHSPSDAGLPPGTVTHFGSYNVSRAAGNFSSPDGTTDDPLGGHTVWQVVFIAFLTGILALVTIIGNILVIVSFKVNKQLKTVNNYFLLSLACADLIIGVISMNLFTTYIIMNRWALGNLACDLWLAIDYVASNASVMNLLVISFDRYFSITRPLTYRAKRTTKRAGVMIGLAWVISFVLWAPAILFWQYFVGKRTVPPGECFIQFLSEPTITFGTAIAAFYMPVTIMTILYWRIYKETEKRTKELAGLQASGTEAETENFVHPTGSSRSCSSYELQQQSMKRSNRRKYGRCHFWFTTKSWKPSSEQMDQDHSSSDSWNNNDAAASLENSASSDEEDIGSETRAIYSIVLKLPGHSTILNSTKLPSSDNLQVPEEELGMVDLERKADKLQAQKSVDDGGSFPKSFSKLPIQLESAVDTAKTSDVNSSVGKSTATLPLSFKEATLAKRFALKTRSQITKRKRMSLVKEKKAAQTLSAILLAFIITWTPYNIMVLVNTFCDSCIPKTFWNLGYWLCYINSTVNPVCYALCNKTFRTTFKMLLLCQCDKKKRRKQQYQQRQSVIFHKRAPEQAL
Assay: The binding affinity was measured as inhibition of binding of [3H]- quinuclidinyl benzilate to m3 Muscarinic acetylcholine receptor M3 in membranes of CHO cells
Assay type: cell membranes
result.type: pKi
// pKi is dimensionless: -log10 of concentration (M)

(Q) What value of pKi has been reported for the following molecule? O=C(OC1CC2CCCC1N2)c1ccc([N+](=O)[O-])cc1 (stereo unspecified)
(A) 6.35

###

Muscarinic acetylcholine receptor data, read-out Ki
Report as a plain number; the unit nM is understood.

(Q) Query Ki on Muscarinic acetylcholine receptor for CC(=O)OC1CC2CCCC1N2 (stereo not given)
(A) 400

(Q) Muscarinic acetylcholine receptor / Ki / CC(=O)OC1CC2CCCC1N2C (stereo not given) : value?
(A) 17000

(Q) Lab request: please report Ki under test system Muscarinic acetylcholine receptor for CN1C2CCCC1C(OC(=O)c1ccccc1)C2 (stereo not given)
(A) 1400

(Q) Which measured Ki belongs to O=C(OC1CC2CCCC1N2)c1ccccc1 (stereo not given) , tested on Muscarinic acetylcholine receptor?
(A) 1400

(Q) Reported Ki for Muscarinic acetylcholine receptor, given O=C1CCCN1CC#CCN1CCCC1 [OXOTREMORINE] ?
(A) 330

###

Recorded Ki, one value per entry.
Target: Muscarinic acetylcholine receptor
Format: cell membranes, Rattus norvegicus, Membrane
Numbers only; they are read as µM.

Example entries and their recorded answers appear below.
> print(dat)
                                   compound                 measurement.target  result.type  data.value
1  O=C(OC1CC2CCCC1N2)c1ccc([N+](=O)[O-])cc1 (stereo not given)  Muscarinic acetylcholine receptor           Ki         2.2
2  CN1C2CCCC1C(OC(=O)c1ccccc1)C2 (stereo not given)  Muscarinic acetylcholine receptor           Ki         1.8
3  O=C(OC1CC2CCCC1N2)C1CCCCC1 (stereo not given)  Muscarinic acetylcholine receptor           Ki          25
4  O=C(OC1CC2CCCC1N2)c1ccccc1 (stereo not given)  Muscarinic acetylcholine receptor           Ki         0.8

(Q) For Muscarinic acetylcholine receptor, provide Ki of O=C1CCCN1CC#CCN1CCCC1 [OXOTREMORINE] please.
(A) 58

Origin of the recorded values: ChEMBL document CHEMBL1133759
